Target: T1, PUF4 RNA-binding domain (Saccharomyces cerevisiae, UniProt P25339 537-888)
T1 sequence: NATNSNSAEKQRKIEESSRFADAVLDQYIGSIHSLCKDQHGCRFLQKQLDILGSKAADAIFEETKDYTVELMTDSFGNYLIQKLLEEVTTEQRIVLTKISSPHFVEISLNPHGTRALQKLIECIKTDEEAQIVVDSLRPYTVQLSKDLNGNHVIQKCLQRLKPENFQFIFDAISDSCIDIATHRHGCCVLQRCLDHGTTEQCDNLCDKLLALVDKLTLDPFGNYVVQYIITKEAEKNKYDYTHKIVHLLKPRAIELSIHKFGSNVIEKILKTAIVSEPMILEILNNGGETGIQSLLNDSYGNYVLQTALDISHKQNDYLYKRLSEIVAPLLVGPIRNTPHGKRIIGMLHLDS
Test: Mg; RNA-MaP; 20 mM Na-HEPES pH 7.4, 30 mM KOAc, 0.75 mM MgCl2, 0.1% Tween-20, 5% glycerol, 0.1 mg/mL BSA, 2 mM DTT; 25 C; 0.0125-409.6 nM protein
Settings: tags: N-His6-TEV cleaved; C-SNAP kept, Cy3B-labelled; label: tethered on chip by stalled RNA polymerase
MEASUREMENT KIND: Kd (nM)
Numeric answer only, unit nM assumed.

Prompt: // query Kd value for entry Id_ii_S4_P3E.4_K3.3_C3.2_[C-2G]_[T-1C]_H3.3_A3.1_F3.1_T3.2_[T9A]_[A10T] (ssRNA) RNA: UUUGACAACUGAUCGUUCUUUCUGCACACUAUAAUUUCUUUCUCGAUCAGUUGUCUUU
Completion: 60.5

Prompt: // returns reported Kd for input Id_ii_S2_P5E.3_K5.2_C5.2_[T-1C]_H5.2_A5.1_F5.1_T5.2_[T11A]_[A12T] (ssRNA) RNA: UUUGAUUAAUAUGAUAUCGUUCUUUCUCCUAUAUUAUUAAUUUCUUUCUCGAUAUCAUAUUAAUCUUU
Completion: 138

Prompt: // Kd lookup, key: Ie_S2_P4E.1_K4.1_C4.1_H4.1_[+2TCTC]_A4.1_F4.1_T4.1 (ssRNA) RNA: UUUGAUUAAUAUGAUAUCGUUCUUUCUUGUCUCUAUAUUAUUCUUUCUCGAUAUCAUAUUAAUCUUU
Completion: 16.8

Prompt: Tell me the measured Kd of UCUCUUUCUGUAUUAUUAAGUCUCUU (ssRNA) [Id_ii_S1_P5E.2_K5.1_C5.2_[C-2T]_[T-1C]_H5.1_A5.1_F5.1_T5.2_[T11A]_[A12G]] , please.
Completion: 11.5
